src = paper PMC6061410

Assay text: Pharmacokinetics of 25-mg single morning or evening dose, part 2
Assay type: in vivo, human
Measurement conditions: human, plasma, oral, 25 mg, Cmax, adjusted gMean, 25 mg single morning dose, fasted
Property measured: Cmax (nM)
Express your answer in nM, writing the number without its unit.

Reported Cmax for C[C@@H](Oc1ccc(S(C)(=O)=O)cc1C(=O)N1C[C@@H]2C[C@]2(c2cc(C(F)(F)F)on2)C1)C(F)(F)F [BI 425809] : what is it?
241

---

Assay text: Pharmacokinetics after single and multiple doses, part 1
Assay type: in vivo, human
Measurement conditions: human, plasma, oral, 75 mg, AUC0–24, young, 75 mg QD, single dose, fasted, gMean (%CV)
Property measured: AUC(0-t) (µM·h)
Express your answer in µM·h, writing the number without its unit.

Reported AUC(0-t) for C[C@@H](Oc1ccc(S(C)(=O)=O)cc1C(=O)N1C[C@@H]2C[C@]2(c2cc(C(F)(F)F)on2)C1)C(F)(F)F [BI 425809] : what is it?
7.17
